system: HT29 colon; experiment: NCI-60 one-dose screen, 48 h; conditions: 10 µM unless noted
About 83,000 compounds went through this panel and 20% of them were active in at least one assay; those are over-represented in the sample as a whole. Activity calls are given as the source filed them. How the source made its calls: active means growth percent below 10; inactive means the rest.
Labels: 1 (yes) for active, 0 (no) for inactive

>  <Compound>
CC1=C(C)C(=O)C(Nc2cccc(C(=O)OC(C)(C)C)c2)=C(Cl)C1=O

>  <Subject of test>
HT29 colon

>  <Qualitative label>
0 (no)

$$$$
>  <Compound>
CC(C)(C)OC(=O)Nc1ccc(-c2cccc(Oc3ccc4nnc(Cl)n4n3)c2)cc1

>  <Subject of test>
HT29 colon

>  <Qualitative label>
0 (no)

$$$$
>  <Compound>
O=S(=O)(NCCCNc1nccc(-c2[nH]c(-c3ccccc3)nc2-c2ccc(F)c(O)c2)n1)c1cccc(F)c1

>  <Subject of test>
HT29 colon

>  <Qualitative label>
0 (no)

$$$$
>  <Compound>
COc1ccccc1Cn1cc(C#N)c(N)c1C(=O)c1ccc(Br)cc1

>  <Subject of test>
HT29 colon

>  <Qualitative label>
0 (no)

$$$$
>  <Compound>
C=C1CCc2nc(SCC(=O)O)ccc2N1

>  <Subject of test>
HT29 colon

>  <Qualitative label>
0 (no)

$$$$
>  <Compound>
CN1c2ccccc2Sc2cc(/C=N/Nc3ccnc4cc(Cl)ccc34)ccc21

>  <Subject of test>
HT29 colon

>  <Qualitative label>
0 (no)

$$$$
>  <Compound>
O=S(=O)(NCCCNc1nccc(-c2[nH]c(-c3ccccc3)nc2-c2ccc(F)c(O)c2)n1)c1ccccc1

>  <Subject of test>
HT29 colon

>  <Qualitative label>
0 (no)

$$$$
>  <Compound>
CC1(C)CC[C@]23CC[C@]4(C)[C@H](CC[C@@H]5[C@@]6(C)CC[C@H](N)C(C)(C)[C@@H]6CC[C@]54C)[C@H]2[C@H]1OC3

>  <Subject of test>
HT29 colon

>  <Qualitative label>
0 (no)

$$$$
>  <Compound>
CC(C)(O)c1cncc(-c2ccc3ncc(C#N)c(N4CCc5cc(F)c(Cl)cc54)c3c2)c1

>  <Subject of test>
HT29 colon

>  <Qualitative label>
1 (yes)

$$$$
>  <Compound>
C/C(=C(\c1ccc(O)cc1)c1ccc(OCCN2CCCCCC2)cc1)c1ccc(Cl)cc1

>  <Subject of test>
HT29 colon

>  <Qualitative label>
1 (yes)

$$$$
>  <Compound>
Cc1ccc2c(n1)C(=O)C(Cl)=C(Nc1ccccc1C(=O)OC(C)(C)C)C2=O

>  <Subject of test>
HT29 colon

>  <Qualitative label>
0 (no)

$$$$
>  <Compound>
Cc1ccc2c(n1)C(=O)C(Cl)=C(Nc1cccc(C(=O)OC(C)(C)C)c1)C2=O

>  <Subject of test>
HT29 colon

>  <Qualitative label>
0 (no)

$$$$
>  <Compound>
CC(=O)N(O)CCCCCNC(=O)CCC(=O)N(O)CCCCCNC(=O)CCC(=O)N(O)CCCCCN(CCCCCCCCCC[P+](c1ccccc1)(c1ccccc1)c1ccccc1)CCCCCCCCCC[P+](c1ccccc1)(c1ccccc1)c1ccccc1

>  <Subject of test>
HT29 colon

>  <Qualitative label>
1 (yes)

$$$$
>  <Compound>
NC(=S)n1c(=O)n(-c2cccc(C(F)(F)F)c2)c(=O)c2cc(-c3ccc(F)cc3F)ccc21

>  <Subject of test>
HT29 colon

>  <Qualitative label>
0 (no)

$$$$
>  <Compound>
C#C[C@]1(O)CC[C@H]2[C@@H]3CC=C4c5sc(Nc6cc(Cl)ccc6OC)nc5CC[C@]4(C)[C@H]3CC[C@@]21C

>  <Subject of test>
HT29 colon

>  <Qualitative label>
0 (no)

$$$$
>  <Compound>
CC/C(=C(/c1ccc(Cl)cc1)c1ccc(OCCN)cc1)c1ccccc1

>  <Subject of test>
HT29 colon

>  <Qualitative label>
0 (no)

$$$$
>  <Compound>
CN(C)S(=O)(=O)c1ccc(-c2nc(C(Cl)Cl)nc3cc(-c4ccc(F)cc4)nn23)cc1

>  <Subject of test>
HT29 colon

>  <Qualitative label>
1 (yes)

$$$$
>  <Compound>
CC[C@]12C=CCN3CC[C@@]4(c5ccc(OC)cc5N(C)[C@H]4[C@@](O)(C(=O)OC)[C@@H]1OC(=O)CCN1CCc4ccccc4C1)[C@@H]32

>  <Subject of test>
HT29 colon

>  <Qualitative label>
0 (no)

$$$$
>  <Compound>
O=C1Nc2ccccc2/C1=C/c1ccc(OCC(=O)c2ccccc2)cc1

>  <Subject of test>
HT29 colon

>  <Qualitative label>
0 (no)

$$$$
>  <Compound>
O=C(CCCCCCNC(=O)C(O)(O)C(F)(F)F)Nc1ncc(-c2ccc(Br)cc2)s1

>  <Subject of test>
HT29 colon

>  <Qualitative label>
1 (yes)

$$$$
>  <Compound>
NC(N)=NS(=O)(=O)c1ccc(N=Nc2c(N)nn(-c3ccc([N+](=O)[O-])cc3[N+](=O)[O-])c2N)cc1

>  <Subject of test>
HT29 colon

>  <Qualitative label>
0 (no)

$$$$
>  <Compound>
O=C1c2ccccc2C23C(=C(c4cncnc4)c4ccccc42)CCCN13 (centres undefined)

>  <Subject of test>
HT29 colon

>  <Qualitative label>
0 (no)

$$$$
>  <Compound>
Clc1ccc2[nH]cc(-c3cncn3CCc3ccc4c(c3)OCO4)c2c1

>  <Subject of test>
HT29 colon

>  <Qualitative label>
0 (no)

$$$$
>  <Compound>
CSc1ccc(/C(=N/N=C(N)N)c2ccc(F)cc2)cc1

>  <Subject of test>
HT29 colon

>  <Qualitative label>
1 (yes)

$$$$
